system name: human TLR7 (Homo sapiens, UniProt Q9NYK1)
Sequence (Q9NYK1 27-1049): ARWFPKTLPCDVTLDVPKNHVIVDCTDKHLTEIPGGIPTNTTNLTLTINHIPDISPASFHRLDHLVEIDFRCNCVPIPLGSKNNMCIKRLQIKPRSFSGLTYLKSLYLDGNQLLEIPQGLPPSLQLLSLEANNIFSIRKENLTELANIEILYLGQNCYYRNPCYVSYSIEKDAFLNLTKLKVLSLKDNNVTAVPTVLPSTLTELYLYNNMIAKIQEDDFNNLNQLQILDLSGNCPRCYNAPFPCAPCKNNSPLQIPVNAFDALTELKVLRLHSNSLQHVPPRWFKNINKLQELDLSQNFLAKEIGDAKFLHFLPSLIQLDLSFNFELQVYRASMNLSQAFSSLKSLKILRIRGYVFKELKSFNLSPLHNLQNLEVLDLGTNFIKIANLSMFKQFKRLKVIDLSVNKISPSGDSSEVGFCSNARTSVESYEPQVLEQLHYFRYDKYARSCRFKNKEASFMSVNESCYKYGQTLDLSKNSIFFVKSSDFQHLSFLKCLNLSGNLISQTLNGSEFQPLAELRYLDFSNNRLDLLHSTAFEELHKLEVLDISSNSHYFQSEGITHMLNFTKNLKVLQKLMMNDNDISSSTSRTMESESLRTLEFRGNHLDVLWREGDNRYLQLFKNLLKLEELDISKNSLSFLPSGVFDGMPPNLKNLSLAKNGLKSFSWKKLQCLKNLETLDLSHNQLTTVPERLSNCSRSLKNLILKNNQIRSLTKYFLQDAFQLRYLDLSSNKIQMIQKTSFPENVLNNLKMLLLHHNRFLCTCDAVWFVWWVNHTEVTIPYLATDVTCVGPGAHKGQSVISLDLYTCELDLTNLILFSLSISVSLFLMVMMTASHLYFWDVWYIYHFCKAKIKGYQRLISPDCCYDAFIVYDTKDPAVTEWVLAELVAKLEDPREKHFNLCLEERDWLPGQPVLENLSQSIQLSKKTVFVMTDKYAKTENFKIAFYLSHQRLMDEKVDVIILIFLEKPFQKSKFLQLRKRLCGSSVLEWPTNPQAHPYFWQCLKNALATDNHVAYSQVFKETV
assay info: TLR7 inhibition reporter assay (HEK-Blue SEAP reporter)
cond: HEK-Blue cells overexpressing human TLR7; gardiquimod 7.5 μM; 22 hour incubation
Where a name gives a salt, the structure may show the parent alone.
For each of the compounds below, state its IC50.
The figure you give is taken to be in nM; do not add the unit.

Entry CCc1c(-c2ccc(OC)c(OC)c2)[nH]c2ccc(N3CCN(CCNC)CC3)cc12 ; assay system human TLR7 (Homo sapiens, UniProt Q9NYK1); IC50 recorded at 235

Entry CCc1c(-c2ccnc(C)c2)[nH]c2ccc(N3CCN(C4CCN(CC(C)C)CC4)CC3)cc12 ; assay system human TLR7 (Homo sapiens, UniProt Q9NYK1); IC50 recorded at 2220

Entry COc1ccc(-c2[nH]c3ccc(NC4CCC(NCCN5CCOCC5)CC4)cc3c2C(C)C)cc1OC (stereo not shown) [Example 48] ; assay system human TLR7 (Homo sapiens, UniProt Q9NYK1); IC50 recorded at 322

Entry COc1ccc(-c2[nH]c3ccc(N4CCNCC4)cc3c2C(C)C)cc1OC [Example 126, TFA Salt] ; assay system human TLR7 (Homo sapiens, UniProt Q9NYK1); IC50 recorded at 53
